Experimental endpoint: melting point

input: Quick one: melting point of `Cc1c(-c2ccccc2)oc2c(C(=O)O)cccc12` ?
output: 220 to 222 °C

input: Another compound: O=C1NC=N[C@H]2CCCC[C@@H]12 (relative stereo)
output: 133 to 134 °C

input: Another compound: `CS(=O)(=O)Nc1ccc(CCN2CCN(C(=O)c3ccc4[nH]ccc4c3)CC2)cc1`
output: 94 to 97 °C

input: Another compound: O=CC1CC(O)c2ccccc2C1O (stereo unspecified)
output: 145 °C

input: Another compound: `CN(C)c1ccc(C(=O)CCCN2CCC(C(O)(c3ccccc3)c3ccccc3)CC2)cc1`
output: 148 to 150 °C

input: Another compound: `Cc1nn(C)c2c(Cl)ncnc12`
output: 92 to 95 °C

input: Another compound: `COc1ccc(OC(C)=O)c2ccccc12`
output: 51 to 53 °C

input: Another compound: CN1C(=O)C(NC(=O)Nc2cccc(F)c2)N=C(c2ccccc2)c2ccccc21 (stereo unspecified)
output: 252 to 254 °C

input: Another compound: `C=CC(C)(C)CC(=O)C(=O)Nc1ccc2c(c1)C(=O)OC2`
output: 103 to 104 °C

input: Another compound: `COC(=O)CCc1ccc(NC(=O)NNC(C)=O)cc1`
output: 159 to 165 °C

input: Another compound: CCCCCCCCCCCCCCCCC(C(=O)O)S(C)=O (stereo unspecified)
output: 93 to 97 °C
